Target: OGA (Homo sapiens)
Construct: HEK293 cells inducible for P301L mutant human Tau (isoform 2N4R) were established at Janssen; endogenous in cells; host or cells: HEK293 cells inducible for P301L mutant human Tau (2N4R)
Experiment: OGA cellular assay (ICC detection of O-GlcNAcylated proteins in HEK293 cells inducible for P301L mutant human Tau)
Type: cell-based
Conditions: HEK293, HEK293 cells inducible for P301L mutant human Tau, maximum = Thiamet G 200 uM
Measured Emax, listed per entry.
Please reply with the bare figure in % and do not write the unit itself.

* Cc1cc(C[C@@H]2CCN(C(C)c3ccc4sc(C)nc4n3)C2)cc(C)n1 (mixture of isomers) | 60

Notebook entry, OGA (Homo sapiens) assay: Emax of Cc1cc(C[C@H]2CCCN([C@H](C)c3ccc4oc(C)nc4n3)C2)cc(C(F)(F)F)n1 [Compound 24a] = ?
81

Query Emax on OGA (Homo sapiens) for Cc1cc(C[C@H]2CCN(C(C)c3cnc4nc(C)oc4c3)C2)cc(C)n1 (some centres unmarked)
77

Under OGA (Homo sapiens): Emax value of COc1cc(C[C@@H]2CCN(C(C)c3ccc4sc(C)nc4n3)C2)cc(C)n1 (single isomer, unassigned) ?
-2

What measured Emax is associated with Cc1cc(NCC2CCCN(C(C)c3ccc4sc(C)nc4n3)C2)cc(C)n1 (single isomer, unassigned) [Compound 106] on OGA (Homo sapiens)?
92

Provide the documented Emax with OGA (Homo sapiens) as the system for Cc1cc(NCC2CCCN(C(C)c3ccc4sc(C)nc4n3)C2)cc(C)n1 (centres unmarked) [Compound 105]
14

Identify the measured Emax of COc1cc(NC[C@H]2CCCN(C(C)c3ccc4sc(C)nc4n3)C2)cc(C)n1 (some centres unmarked) for OGA (Homo sapiens).
89

Hello, I am looking for reported Emax with OGA (Homo sapiens) for Cc1cc(OC[C@@H]2CCN(C(C)c3ccc4sc(C)nc4n3)C2)cc(C)n1 (mixture of isomers) . Could you help?
11

====

Emax: recorded values
Biological target: recombinant human Meningioma Expressed Antigen 5 (MGEA5), also referred to as O-GlcNAcase (OGA) (Homo sapiens, UniProt O60502)
Construct: Full length OGA enzyme was purchased at OriGene (cat #TP322411); purchased OriGene TP322411
Assay: OGA biochemical assay (inhibition of FM-GlcNAc hydrolysis, fluorescence)
Details: FM-GlcNAc substrate, maximal effect, read-out: Enzymatic Emax (%)

Below are worked cases with known answers.
• Cc1cc(C[C@H]2CCCN(C(C)c3ccc4sc(C)nc4n3)C2)cc(C)n1 (single isomer, unassigned) [Compound 42a] = 98%
• Cc1cc(CN[C@H]2CCCN(C(C)c3ccc4sc(C)nc4n3)C2)cc(C)n1 (stereo partly drawn) [Compound 84] = 98%
• Cc1cc(C[C@@H]2CCN(C(C)c3ccc4oc(C)nc4n3)C2)cc(C)n1 (mixture of isomers) [Compound 26] = 101%
• Cc1cc(OC[C@@H]2CCCN([C@H](C)c3ccc4sc(C)nc4n3)C2)cc(C)n1 [Compound 45a] = 95%
• Cc1cc(OC[C@H]2CCCN([C@@H](C)c3ccc4sc(C)nc4n3)C2)cc(C)n1 [Compound 46a] = 96%

Now for the molecule whose Emax we want.
Would you kindly share the measured Emax for Cc1cc(C2CCCN(C(C)c3cnc4[nH]c(C)nc4c3)C2)cc(C(F)(F)F)n1 (stereo not drawn) [Compound 3] ?
96%
